Listing of entries alongside the reported composite z-score.
- test-system: Follistatin (Homo sapiens) (UniProt P19883)
- Sequence (P19883 whole entry, looked up): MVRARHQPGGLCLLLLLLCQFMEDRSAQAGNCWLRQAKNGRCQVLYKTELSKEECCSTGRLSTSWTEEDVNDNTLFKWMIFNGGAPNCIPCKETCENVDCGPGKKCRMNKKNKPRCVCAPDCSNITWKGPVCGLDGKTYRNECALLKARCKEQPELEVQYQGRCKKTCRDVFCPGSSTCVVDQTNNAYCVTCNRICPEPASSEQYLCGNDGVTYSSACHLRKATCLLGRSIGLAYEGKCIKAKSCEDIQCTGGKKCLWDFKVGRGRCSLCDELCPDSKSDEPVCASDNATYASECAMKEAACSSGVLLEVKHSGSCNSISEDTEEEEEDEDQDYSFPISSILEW
- method: follistatin binders on small-molecule microarrays, primary screen, biochemical, small-molecule microarray, 635/667 nm fluorescence (AID 1132)
- assay-setup: FST binding, 635 nm fluorescence, higher = more signal

Form field: reported composite z-score of Cc1ccc(S[C@]2(C(=O)NCCN3CCOCC3)CC(=O)N(Cc3ccccc3)[C@@H]2c2ccc(CO)cc2I)cc1
-0.422

Form field: reported composite z-score of C=CCC(OC(C)=O)[C@@H]1[C@@H](N(Cc2ccc(-c3cccc(C(F)(F)F)c3)o2)C(=O)c2ccc(-c3ccccc3)cc2)c2cc(OCCCO)ccc2N1C(=O)c1ccc(-c2ccccc2)cc1 (some centres not stated)
0.47

In the following, a different molecule is considered.
Form field: reported composite z-score of O=C(C1N=C(c2ccc(OCCCO)cc2)N(c2ccccc2)O1)N1CCOCC1 (configuration not stated)
1.22
